Target: T1, mouse B7-H4 (recombinant, BLI) (mouse, UniProt Q7TSP5 29-256, limits assumed)
T1 construct: also called murine B7-H4
T1 sequence: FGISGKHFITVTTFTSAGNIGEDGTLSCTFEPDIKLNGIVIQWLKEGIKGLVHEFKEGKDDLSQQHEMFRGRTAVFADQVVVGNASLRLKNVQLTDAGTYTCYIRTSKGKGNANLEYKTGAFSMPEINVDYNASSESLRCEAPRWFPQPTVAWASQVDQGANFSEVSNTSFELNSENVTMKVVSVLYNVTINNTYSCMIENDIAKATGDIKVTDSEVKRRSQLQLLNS
Assay: BLI, antigen on Protein A tips;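 also: Anti-B7-H4 antibodies assessed for affinity toward the B7-H4 extracellular domain using biolayer interferometry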
Please respond with reported Kd for every item in the list.
Numbers only, in nM.

Past entries and their recorded results:
BINDER	QUANTITY_NAME	DISPLAY_UNIT	REPORTED_MEASUREMENT
B7-H4 antibody 20502 (antibody, V domains shown, human IgG1/kappa) VH: QLQLQESGPGLVKPSETLSLTCTVSGGSIKSGSYYWGWIRQPPGKGLEWIGNIYYSGSTYYNPSLRSRVTISVDTSKNQFSLKLSSVTAADTAVYYCAREGSYPNQFDPWGQGTLVTVSS VL: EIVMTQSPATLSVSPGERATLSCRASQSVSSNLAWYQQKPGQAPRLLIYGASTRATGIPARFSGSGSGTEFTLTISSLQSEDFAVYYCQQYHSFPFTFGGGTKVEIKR	Kd	nM	3.4
B7-H4 antibody 20502.1 (antibody, human IgG1, kappa, V domains shown, human IgG1/kappa) VH: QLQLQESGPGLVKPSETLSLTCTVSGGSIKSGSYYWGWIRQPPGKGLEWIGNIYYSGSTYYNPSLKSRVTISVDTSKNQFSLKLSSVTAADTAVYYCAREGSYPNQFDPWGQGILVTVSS VL: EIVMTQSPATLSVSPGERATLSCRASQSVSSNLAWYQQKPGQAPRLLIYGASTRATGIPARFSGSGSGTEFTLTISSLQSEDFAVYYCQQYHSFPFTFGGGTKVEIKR	Kd	nM	3.99
B7-H4 antibody 20506 (antibody, V domains shown, human IgG1/kappa) VH: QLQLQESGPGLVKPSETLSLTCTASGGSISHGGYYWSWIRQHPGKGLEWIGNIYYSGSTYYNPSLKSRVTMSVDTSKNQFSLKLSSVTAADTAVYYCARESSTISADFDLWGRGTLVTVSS VL: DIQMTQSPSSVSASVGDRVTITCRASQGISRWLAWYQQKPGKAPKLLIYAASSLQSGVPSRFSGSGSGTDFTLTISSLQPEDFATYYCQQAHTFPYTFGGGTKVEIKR	Kd	nM	3.53
B7-H4 antibody 20501 (antibody, human IgG1, kappa, V domains shown, human IgG1/kappa) VH: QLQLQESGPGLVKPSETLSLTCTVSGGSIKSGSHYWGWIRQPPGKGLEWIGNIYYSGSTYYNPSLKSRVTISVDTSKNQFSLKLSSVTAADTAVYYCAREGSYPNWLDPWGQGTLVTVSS VL: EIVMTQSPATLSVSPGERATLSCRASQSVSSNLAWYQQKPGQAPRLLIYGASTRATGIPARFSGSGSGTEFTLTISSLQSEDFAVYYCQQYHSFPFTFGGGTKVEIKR	Kd	nM	3.35

Attention now shifts to the item below.
Challenge: I am curious: what Kd value has been reported for B7-H4 antibody 20500 (antibody, human IgG1, kappa, V domains shown, human IgG1/kappa) VH: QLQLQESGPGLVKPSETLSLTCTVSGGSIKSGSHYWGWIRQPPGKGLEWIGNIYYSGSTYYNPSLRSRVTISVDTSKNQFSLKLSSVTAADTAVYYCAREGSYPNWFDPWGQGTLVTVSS VL: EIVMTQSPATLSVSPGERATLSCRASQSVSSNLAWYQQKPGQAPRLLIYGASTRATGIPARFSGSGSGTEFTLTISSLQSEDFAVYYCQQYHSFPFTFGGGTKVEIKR ?
Response given: 8.25
